Reference for the values: PubChem BioAssay (Tox21)

- ASSAY_OVERVIEW: qHTS assay for identifying genotoxic compounds that show differential cytotoxicity against isogenic chicken DT40 cell lines with known DNA damage response pathways - wild type cell line (AID 743012); further: nearly all actives have a fitted effect of over 60% in size
- COND: DT40 wild type chicken cells viability, CellTiter-Glo, 40 h; series mostly up to 68.4 µM
Inconclusive results are not listed. The source made the active and inactive calls. The call rests on the fitted dose curve; in most records, active means well fitted cell-killing curve with a large enough effect in the repeat runs; inconclusive means weak or mixed curves, or effect the other way; inactive means no such curve, though single readings can be large or run the other way.
Labels: active, inactive

O=[N+]([O-])/N=C1\NCCN1Cc1ccc(Cl)nc1
inactive
CS(=O)(=O)NC(=O)c1cc(Oc2ccc(C(F)(F)F)cc2Cl)ccc1[N+](=O)[O-]
inactive
CN(C)P(=O)(N(C)C)N(C)C
inactive
Clc1cccc(C(Cl)(Cl)Cl)n1
inactive
CCN(CC)C(=O)C(C)Oc1cccc2ccccc12 (stereo not given)
active
Clc1cccc(Cl)c1
inactive
OCCOCCO
inactive
ClC(Cl)=C(Cl)C(Cl)=C(Cl)Cl
inactive
CC(C)(c1ccccc1)c1ccc(O)cc1
active
CCCCOCCOC(C)=O
inactive
CCC(=O)Nc1ccc(Cl)c(Cl)c1
inactive
ClC(Cl)(Cl)Br
inactive
Nc1ncn[nH]1
inactive
C[N+](C)(C)CC(=O)[O-]
inactive
C[N+](C)(C)CC(=O)O
inactive
